System: Pseudogymnoascus destructans 20631-21
procedure-details: growth activity index (DuctApe, 0 = no growth, 9 = maximal growth) (index 0-9); higher = more fungal growth (less inhibition), active = 0 or less; extreme values may be limits of the assay
particulars: concentration level (1-4, increasing; Biolog proprietary): 4; temperature: 13 °C; YPD
Assign growth activity index to each entry below.
Provide a numeric answer; units are not to be included.

Q: Give the measured growth activity index for NC[C@@H]1O[C@H](O[C@H]2[C@@H](O)[C@H](O[C@@H]3[C@@H](O)[C@H](N)C[C@H](N)[C@H]3O[C@H]3O[C@H](CO)[C@@H](O)[C@H](O)[C@H]3N)O[C@@H]2CO)[C@H](N)[C@@H](O)[C@@H]1O [Paromomycin] (Biolog plate: PM22)
Result: 0

Q: For the compound NCCSCC(N)C(=O)O (configuration not stated) [Thialysine] (Biolog plate: PM24) , report growth activity index.
Result: 5

Q: Dear colleague, please send me the reported growth activity index for [Cl][Cu][Cl] [Cupric chloride] (Biolog plate: PM23) when you can.
Result: 6

Q: For the compound [Na+].[O]=[V](=[O])[O-] [Sodium metavanadate] (Biolog plate: PM22) , give its measured growth activity index value.
Result: 3.67

Q: // Input: [F-].[Na+] [Sodium Fluoride] (Biolog plate: PM24) . Output its growth activity index only.
Result: 4.67

Q: Identify measured growth activity index associated with N[C@@H]1CONC1=O [D-Cycloserine] (Biolog plate: PM21)
Result: 0

Q: Tell me growth activity index reported for O=C(O)CN(CC(=O)O)c1ccccc1OCCOc1ccccc1N(CC(=O)O)CC(=O)O (Biolog plate: PM22)
Result: 0.667

* * *

Test system: Pseudogymnoascus destructans 20631-21
procedure-details: growth activity index (DuctApe, 0 = no growth, 9 = maximal growth) (index 0-9); higher = more fungal growth (less inhibition), active = 0 or less; extreme values may be limits of the assay
particulars: concentration level (1-4, increasing; Biolog proprietary): 1; temperature: 13 °C; YPD
assay-metric: growth activity index
The reply should be a number, written without any unit.

Q: Output growth activity index of NC[C@H]1O[C@H](O[C@H]2[C@H](O)[C@@H](O[C@H]3O[C@H](CO)[C@@H](O)[C@H](N)[C@H]3O)[C@H](N)C[C@@H]2N)[C@H](N)C[C@@H]1O [Tobramycin] (Biolog plate: PM25)
Result: 5

Q: Give the reported value of growth activity index for this record: NCCSCC(N)C(=O)O (stereo unspecified) [Thialysine] (Biolog plate: PM24)
Result: 4

Q: Assign growth activity index to the following record: O=C(O)CC(O)C(=O)O (stereo unspecified) [Malic acid] (Biolog plate: PM25)
Result: 4

Q: Consider the compound C[C@@H]1[C@H](O)[C@@H](C)/C=C/C=C/C=C/C=C/C=C/C=C/C=C/[C@H](O[C@@H]2O[C@H](C)[C@@H](O)[C@H](N)[C@@H]2O)C[C@@H]2O[C@](O)(C[C@@H](O)C[C@@H](O)[C@H](O)CC[C@@H](O)C[C@@H](O)CC(=O)O[C@H]1C)C[C@H](O)[C@H]2C(=O)O [Amphotericin B] (Biolog plate: PM24) . State its measured growth activity index.
Result: 0

Q: Answer with reported growth activity index of NC(N)=S [Thiourea] (Biolog plate: PM21)
Result: 2

Q: Query growth activity index for [Na+].[O]=[V](=[O])[O-] [Sodium metavanadate] (Biolog plate: PM22)
Result: 5

* * *

System: Pseudogymnoascus destructans 20631-21
procedure-details: growth activity index (DuctApe, 0 = no growth, 9 = maximal growth) (index 0-9); higher = more fungal growth (less inhibition), active = 0 or less; extreme values may be limits of the assay
particulars: concentration level (1-4, increasing; Biolog proprietary): 2; temperature: 13 °C; YPD
Structures can show the parent of a compound that is named as a salt.
Would you mind answering with one of these outcomes? true (active), false (inactive)

Q: Field: outcome | Entry: NC[C@@H]1O[C@H](O[C@H]2[C@@H](O)[C@H](O[C@@H]3[C@@H](O)[C@H](N)C[C@H](N)[C@H]3O[C@H]3O[C@H](CO)[C@@H](O)[C@H](O)[C@H]3N)O[C@@H]2CO)[C@H](N)[C@@H](O)[C@@H]1O [Paromomycin] (Biolog plate: PM22)
Result: false

Q: What did the test return for CSc1ccc2c(c1)N(CCC1CCCCN1C)c1ccccc1S2 (stereo not given) [Thioridazine] (Biolog plate: PM24) ?
Result: false

Q: Dear colleague, could you share the recorded outcome for O=C(O)/C=C/c1ccccc1 [Cinnamic acid] (Biolog plate: PM25) when you have a moment?
Result: false

Q: Write down the call the test reported for this compound. Item: O=C(O)CCC(=O)O [Succinic acid] (Biolog plate: PM25)
Result: false

Q: Dear colleague, could you share the recorded outcome for CN(C)CCCN1c2ccccc2Sc2ccc(Cl)cc21 [Chlorpromazine] (Biolog plate: PM23) when you have a moment?
Result: true

Q: GET /call?item= C[C@@H]1[C@H](O)[C@@H](C)/C=C/C=C/C=C/C=C/C=C/C=C/C=C/[C@H](O[C@@H]2O[C@H](C)[C@@H](O)[C@H](N)[C@@H]2O)C[C@@H]2O[C@](O)(C[C@@H](O)C[C@@H](O)[C@H](O)CC[C@@H](O)C[C@@H](O)CC(=O)O[C@H]1C)C[C@H](O)[C@H]2C(=O)O [Amphotericin B] (Biolog plate: PM24) returns the recorded outcome of this test.
Result: false

Q: Dear all, I need the recorded test outcome for Nc1[nH]c(=O)ncc1F [5-Fluorocytosine] (Biolog plate: PM25) , thank you.
Result: false

Q: Hi, do you know how NCC(=O)O [Glycine hydrochloride] (Biolog plate: PM23) came out in this test?
Result: false

Q: Write down the call the test reported for this compound. Item: O=C(O)CN(CC(=O)O)c1ccccc1OCCOc1ccccc1N(CC(=O)O)CC(=O)O (Biolog plate: PM22)
Result: false

Q: Call for entry NC[C@H]1O[C@H](O[C@H]2[C@H](O)[C@@H](O[C@H]3O[C@H](CO)[C@@H](O)[C@H](N)[C@H]3O)[C@H](N)C[C@@H]2N)[C@H](O)[C@@H](O)[C@@H]1O [Kanamycin] (Biolog plate: PM25) :
Result: false

* * *

Hi there, I'd appreciate the recorded growth activity index for every entry that follows.
System: Pseudogymnoascus destructans 20631-21
procedure-details: growth activity index (DuctApe, 0 = no growth, 9 = maximal growth) (index 0-9); higher = more fungal growth (less inhibition), active = 0 or less; extreme values may be limits of the assay
particulars: concentration level (1-4, increasing; Biolog proprietary): 2; temperature: 13 °C; YPD
Enter the number alone.

Q: Let me know recorded growth activity index for O=C([O-])c1ccccc1O.[Na+] [Sodium Salicylate] (Biolog plate: PM25) , thanks.
Result: 3.33

Q: Return the recorded growth activity index value; entry: O=C([O-])c1ccccc1.[Na+] [Sodium Benzoate] (Biolog plate: PM24)
Result: 5

Q: Give growth activity index for Nc1c2ccccc2nc2ccccc12 [9-Aminoacridine] (Biolog plate: PM24)
Result: 5.33

Q: Give growth activity index for CCCCCCCCCCCC[N+](C)(C)C [Dodecyltrimethyl ammonium bromide] (Biolog plate: PM21)
Result: 0

Q: Determine from records and report growth activity index for NC(N)=NCCC[C@H](N)C(=O)NO [L-Arginine hydroxamate] (Biolog plate: PM22)
Result: 5

Q: In one line, give reported growth activity index of the entry Cn1c(=O)c2c(ncn2C)n(C)c1=O [Caffeine] (Biolog plate: PM22) .
Result: 4

Q: Give recorded growth activity index. Cc1cc(N)c2ccccc2[n+]1CCCCCCCCCC[n+]1c(C)cc(N)c2ccccc21 [Dequalinium chloride] (Biolog plate: PM23)
Result: 4.67

Q: Quickly give me recorded growth activity index for NO [Hydroxylamine] (Biolog plate: PM23)
Result: 4

* * *

System: Pseudogymnoascus destructans 20631-21;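 also: biolog Phenotype Microarray plates PM21–25, OD595 followed daily over 11 days, growth curves converted to index, mean of two independent experiments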
procedure-details: growth activity index (DuctApe, 0 = no growth, 9 = maximal growth) (index 0-9); higher = more fungal growth (less inhibition), active = 0 or less; extreme values may be limits of the assay
particulars: concentration level (1-4, increasing; Biolog proprietary): 4; temperature: 13 °C; YPD
assay-metric: growth activity index
Simply state the number, no unit and no words.

Q: Complete the entry with growth activity index for C[C@H]1c2cccc(O)c2C(=O)C2=C(O)[C@]3(O)C(=O)C(C(N)=O)=C(O)[C@@H](N(C)C)[C@@H]3[C@@H](O)[C@@H]21 [Doxycycline] (Biolog plate: PM23)
Result: 6

Q: Given c1ccc(-c2nn(-c3ccccc3)[n+](-c3cccc4ccccc34)n2)cc1 [Tetrazolium violet] (Biolog plate: PM25) , respond with its growth activity index.
Result: 2

Q: Consider the compound CO/N=C(\C(=O)N[C@@H]1C(=O)N2C(C(=O)O)=C(CSc3nc(=O)c(O)nn3C)CS[C@H]12)c1csc(N)n1 [Ceftriaxone] (Biolog plate: PM22) and give its recorded growth activity index.
Result: 0

Q: Query growth activity index for O=C(O)CC(O)C(=O)O (configuration not stated) [Malic acid] (Biolog plate: PM25)
Result: 1.33

Q: Return value of growth activity index for input CC(=O)OCC1=C(C(=O)O)N2C(=O)[C@@H](NC(=O)Cc3cccs3)[C@H]2SC1 [Cephalotin] (Biolog plate: PM22) , no commentary.
Result: 1

Q: Please report the measured growth activity index for Cn1c(=O)c2c(ncn2C)n(C)c1=O [Caffeine] (Biolog plate: PM22)
Result: 0

Q: Indicate the recorded growth activity index value for this compound: O=P(O)(O)OP(=O)(O)O [Sodium pyrophosphate] (Biolog plate: PM24)
Result: 4
